system_tested: T1, TNFR1 (Homo sapiens, UniProt P19438)
T1 chain: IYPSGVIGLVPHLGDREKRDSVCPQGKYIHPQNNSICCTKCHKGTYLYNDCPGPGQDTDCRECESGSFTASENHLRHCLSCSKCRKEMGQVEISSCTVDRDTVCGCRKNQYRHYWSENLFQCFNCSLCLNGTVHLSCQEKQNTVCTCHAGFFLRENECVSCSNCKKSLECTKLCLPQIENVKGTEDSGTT
assay_comment: yeast display SC50
measured_quantity: apparent Kd (screen) (nM)
Answer in nM, number only, no unit symbol.

[in] Can you look up the measured apparent Kd (screen) of E19H (designed binder) SMEEEVEKAAKEYEKKKKHAIEKHLEKLKAKDKEAAERFLKELEEAAKEYAKDEAKTMSEEEAKRRAKKYKEKVLLSELSEEEQKEIKEAEEKLVRTILKYVEEAAK for me?
[out] 0.49

[in] Record: E14V (designed binder) SMEEEVEKAAKEYVKKKKEAIEKHLEKLKAKDKEAAERFLKELEEAAKEYAKDEAKTMSEEEAKRRAKKYKEKVLLSELSEEEQKEIKEAEEKLVRTILKYVEEAAK
[out] 11.4

[in] Record: E72R (designed binder) SMEEEVEKAAKEYEKKKKEAIEKHLEKLKAKDKEAAERFLKELEEAAKEYAKDEAKTMSEEEAKRRAKKYKRKVLLSELSEEEQKEIKEAEEKLVRTILKYVEEAAK
[out] 7.07

[in] Record: K33F (designed binder) SMEEEVEKAAKEYEKKKKEAIEKHLEKLKAKDFEAAERFLKELEEAAKEYAKDEAKTMSEEEAKRRAKKYKEKVLLSELSEEEQKEIKEAEEKLVRTILKYVEEAAK
[out] 0.49
